# METHOD: ovarian cancer cell viability with rucaparib, profiling panel, oncology-focused library, rucaparib conditional (AID 1508598)
# CONDITION SET: patient-derived ovarian cancer cells, CellTiter-Glo viability, 144 h; at 0.313 µM; OCI-P5x cells; with rucaparib 20 µM; active compounds read low; 100% = cells with rucaparib alone
QUANTITY: viability (%)

{"COMPOUND STRING": "Cc1ccc(S(=O)(=O)/C=C/C#N)cc1", "READING": 90.2}
{"COMPOUND STRING": "CC(C)c1onc(-c2c(Cl)cccc2Cl)c1COc1ccc(/C=C/c2cccc(C(=O)O)c2)c(Cl)c1", "READING": 106}
{"COMPOUND STRING": "O=c1[nH]c(-c2ccc(C(F)(F)F)cc2)nc2c1CSCC2", "READING": 105}
{"COMPOUND STRING": "N#Cc1c(O)c2c(-c3ccc(-c4ccccc4O)cc3)csc2[nH]c1=O", "READING": 117}
{"COMPOUND STRING": "O=C(c1ccc(OCCN2CCCCC2)cc1)c1c(-c2ccc(O)cc2)sc2cc(O)ccc12", "READING": 105}

Origin of measurements: PubChem BioAssay
